- test-system: CYP3A4 (Homo sapiens)
- protocol-text: Determination of compound Kiapp against recombinant CYP3A4 enzyme (BFC fluorescent substrate)
- Assay type: biochemical
- experimental-context: Super. enzyme preparation, read-out: Kiapp (BFC, Super.)
I'd appreciate it if you marked entries True when Ki is lower than 70 nM and False when it is not.

Known results for compounds:
CC(C)CCNC(=O)c1ccccc1S(=O)(=O)N(C)c1cccnc1 [Example 323] = False
CC(C)CCN(C)C(=O)c1ccccc1S(=O)(=O)Nc1cccnc1 [Example 371] = True
CCC(C)CNC(=O)c1ccccc1S(=O)(=O)Nc1cnccc1OC (centres unmarked) [Example 116] = True

Find out if reported Ki for Cc1ccncc1NS(=O)(=O)c1ccccc1C(=O)NCc1ccc(S(C)(=O)=O)cc1 [Example 169] is less than 70 nM
False

* * *

- test-system: CYP3A4 (Homo sapiens)
- protocol-text: Determination of IC50 against CYP3A4 by measurement of inhibition of midazolam metabolism (human liver microsomes, 1-hydroxymidazolam by LC-MS/MS)
- Assay type: biochemical
- Set-up: 0.1 mg/mL human liver microsomes
- experimental-context: 2 μM midazolam, 0.1 mg/mL human liver microsomes
Parameter IC50: see the listing below.
Please give a number only; it is taken to be in nM.

O=C(NCc1ccccc1)c1ccccc1S(=O)(=O)Nc1cccnc1 = 31
COc1cncc(NS(=O)(=O)c2ccccc2C(=O)NCCc2cccc(Cl)c2)c1 = 13
COc1cccc(CNC(=O)c2ccccc2S(=O)(=O)Nc2cccnc2)c1 = 23
CC(C)(CN1CCOCC1)NC(=O)c1ccccc1S(=O)(=O)Nc1cccnc1 = 111
Cc1cncc(NS(=O)(=O)c2ccccc2C(=O)N2CCCC(C)(C)C2)c1 = 37

// returns reported IC50 for input `CN(Cc1ccccc1)C(=O)c1ccccc1S(=O)(=O)Nc1cccnc1`
40.6

What measured IC50 goes with `CC[C@@H](C)NC(=O)c1ccccc1S(=O)(=O)Nc1cncc(OC)c1` ?
26

What does the record list as IC50 for `Cc1cncc(NS(=O)(=O)c2ccccc2C(=O)NC(C(C)C)C(C)C)c1` ?
22

Give the measured IC50 of Cc1cncc(NS(=O)(=O)c2ccccc2C(=O)NC(C)CC(C)C)c1 (centres unmarked) .
8

* * *

This section presents molecules with their documented pIC50 values.
- test-system: CYP3A4 (Homo sapiens, UniProt P08684)
- Sequence (P08684 whole entry): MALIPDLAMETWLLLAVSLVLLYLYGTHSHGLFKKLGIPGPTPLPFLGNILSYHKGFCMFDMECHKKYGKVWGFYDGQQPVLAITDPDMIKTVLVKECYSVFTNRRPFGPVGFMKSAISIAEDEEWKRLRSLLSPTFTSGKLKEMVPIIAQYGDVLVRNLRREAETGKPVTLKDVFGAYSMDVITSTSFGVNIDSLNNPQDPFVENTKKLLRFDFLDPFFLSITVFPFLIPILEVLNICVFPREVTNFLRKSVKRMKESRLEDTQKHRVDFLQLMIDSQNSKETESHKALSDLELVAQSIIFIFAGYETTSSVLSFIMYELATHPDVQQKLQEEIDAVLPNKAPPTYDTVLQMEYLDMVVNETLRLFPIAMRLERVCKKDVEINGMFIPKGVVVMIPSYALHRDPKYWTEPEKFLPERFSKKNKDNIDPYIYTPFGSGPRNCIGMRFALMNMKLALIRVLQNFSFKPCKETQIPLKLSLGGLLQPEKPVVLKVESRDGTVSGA
- protocol-text: Determination of IC50 against CYP3A4 by measurement of inhibition of midazolam metabolism (human liver microsomes, 1-hydroxymidazolam by LC-MS/MS)
- Format: biochemical
- Set-up: 0.1 mg/mL human liver microsomes
- experimental-context: 2 μM midazolam, 0.1 mg/mL human liver microsomes
# pIC50 is unitless: minus log10 of the molar concentration; print number only

Please review the entries below; each comes with its answer.
CCOc1ccncc1NS(=O)(=O)c1ccccc1C(=O)NC(C)CC (stereo not drawn) [Example 119] = 7.35
COc1ccncc1NS(=O)(=O)c1ccccc1C(=O)N(C)Cc1ccc(C(F)(F)F)cc1 [Example 123] = 8.00
COc1cncc(NS(=O)(=O)c2ccccc2C(=O)NC2CC3CCC2C3)c1 (stereo not drawn) [Example 215] = 7.60
COc1cncc(NS(=O)(=O)c2ccc(Cl)cc2C(=O)NCCC(C)C)c1 [Example 295] = 7.38
CCOc1cncc(NS(=O)(=O)c2ccccc2C(=O)NCc2ccc(F)c(C(F)(F)F)c2)c1 [Example 288] = 7.92

What value of measured pIC50 is listed for O=C(NC1(CO)CCCC1)c1ccccc1S(=O)(=O)Nc1cccnc1 [Example 23] ?
6.99

Item O=C(c1ccccc1S(=O)(=O)Nc1cccnc1)N1CCN(c2ccccn2)CC1 [Example 62] has what recorded pIC50?
6.74

Would you kindly share the measured pIC50 for COc1cncc(NS(=O)(=O)c2ccccc2C(=O)NCCc2ccc(F)cc2F)c1 [Example 191] ?
8.00

Can you look up the measured pIC50 of COc1cncc(NS(=O)(=O)c2ccccc2C(=O)NCCc2ccccc2OC)c1 [Example 263] for me?
8.05

# lookup: pIC50 of CCCCCNC(=O)c1ccccc1S(=O)(=O)Nc1cccnc1 [Example 61]
7.57

Would you kindly share the measured pIC50 for COc1cncc(NS(=O)(=O)c2ccccc2C(=O)NCCCc2ccccc2)c1 [Example 235] ?
8.00

* * *

- test-system: CYP3A4 (Homo sapiens, UniProt P08684)
- protocol-text: Determination of IC50 against CYP3A4 by measurement of inhibition of testosterone metabolism (human liver microsomes, 6-β-OH-testosterone by LC-MS/MS)
- Assay type: biochemical
- Set-up: 0.1 mg/mL human liver microsomes
- experimental-context: read-out: IC50 (Testo.)
measure-name: IC50 (nM)
Enter your answer as a number in nM; do not include the unit.

# example entries with known answers
CCCCN(C)C(=O)c1ccccc1S(=O)(=O)Nc1cnccc1C = 87
COc1cncc(NS(=O)(=O)c2ccccc2C(=O)NCc2cccc(Cl)c2Cl)c1 = 10
COc1ccncc1NS(=O)(=O)c1ccccc1C(=O)NCCOc1ccccc1 = 56
O=C(NCc1ccc2c(c1)CCO2)c1ccccc1S(=O)(=O)Nc1cccnc1 = 25
CC1CCN(C(=O)c2ccccc2S(=O)(=O)Nc2cccnc2)CC1 = 83.4
Cc1ccncc1NS(=O)(=O)c1ccccc1C(=O)N(C)Cc1ccc(C(F)(F)F)cc1 = 54
COc1cccc(OC)c1CNC(=O)c1ccccc1S(=O)(=O)Nc1cccnc1 = 42
CCCCCNC(=O)c1ccccc1S(=O)(=O)Nc1cncc(OC)c1 = 33
Cc1cncc(NS(=O)(=O)c2ccccc2C(=O)NCc2ccc(F)c(C(F)(F)F)c2)c1 = 27
Cc1cncc(NS(=O)(=O)c2ccccc2C(=O)NCc2ccc(S(C)(=O)=O)cc2)c1 = 129

Value lookup for IC50; key = `COc1ccncc1NS(=O)(=O)c1ccccc1C(=O)NC(C)(C)C`
120

IC50 lookup needed for `CCCCNC(=O)c1ccccc1S(=O)(=O)Nc1cncc(C)c1` , thanks.
38

Requested read-out: IC50. Entry: `COc1cncc(NS(=O)(=O)c2ccccc2C(=O)NCCc2ccccc2C)c1`
3

* * *

- test-system: CYP3A4 (Homo sapiens, UniProt P08684)
- protocol-text: Determination of IC50 against CYP3A4 by measurement of inhibition of midazolam metabolism (human liver microsomes, 1-hydroxymidazolam by LC-MS/MS)
- Assay type: biochemical
- Set-up: 0.1 mg/mL human liver microsomes
- experimental-context: 2 μM midazolam, 0.1 mg/mL human liver microsomes
measure-name: pIC50
pIC50 field: float, defined as -log10 of concentration (mol/L).

As a guide, the following entries are already answered.
COc1cncc(NS(=O)(=O)c2ccccc2C(=O)N(C)C(C)C)c1 = 7.31
COc1cccc(OC)c1CNC(=O)c1ccccc1S(=O)(=O)Nc1cccnc1 = 7.70
CCOc1ccncc1NS(=O)(=O)c1ccccc1C(=O)NC(C)C1CC1 (stereo not drawn) = 7.66
COc1cncc(NS(=O)(=O)c2ccccc2C(=O)NCCO)c1 = 6.39
Cc1cncc(NS(=O)(=O)c2ccccc2C(=O)NCc2ccc(F)c(C)c2)c1 = 7.89

Which pIC50 is reported for this compound? `COC[C@H](C)NC(=O)c1ccccc1S(=O)(=O)Nc1cncc(OC)c1`
7.17

Consider the compound shown here: CCC(C)NC(=O)c1ccccc1S(=O)(=O)Nc1cncc(N)c1 (stereo not drawn) What is its recorded pIC50?
7.05

Fill in: pIC50 of `COc1cncc(NS(=O)(=O)c2ccccc2C(=O)N2CCOCC2)c1` is ___
6.50

Given the compound `C[C@@H]1CN(C(=O)c2ccccc2S(=O)(=O)Nc2cccnc2)C[C@H](C)O1` , what is its reported pIC50?
6.18

* * *

- test-system: CYP3A4 (Homo sapiens, UniProt P08684)
- protocol-text: Determination of compound Kiapp against recombinant CYP3A4 enzyme (BFC fluorescent substrate)
- Type: biochemical
- experimental-context: Baculo. enzyme preparation, read-out: Kiapp (BFC, Baculo.)
measure-name: log10 of Ki (log10 of the value in nM)
Log10 applied to Ki; unit prior to transform: nM.

Example cases with answers are listed next.
CCOc1ccncc1NS(=O)(=O)c1ccccc1C(=O)N(C)Cc1ccc(C(F)(F)F)cc1 = 1.69
O=C(NCc1ccc(F)c(F)c1)c1ccccc1S(=O)(=O)Nc1cccnc1 = 2.02
COc1cncc(NS(=O)(=O)c2ccccc2C(=O)NC(C)c2ccc(Cl)cc2)c1 (centres unmarked) = 1.57
COCCN(C(=O)c1ccccc1S(=O)(=O)Nc1cncc(OC)c1)C(C)C = 1.66
COc1cncc(NS(=O)(=O)c2ccccc2C(=O)NC2CCCC(C)C2)c1 (centres unmarked) = 1.93

Reported log10 of Ki for CYP3A4 (Homo sapiens, UniProt P08684), given `CCOc1ccncc1NS(=O)(=O)c1ccccc1C(=O)N[C@H](C)C(C)C` ?
2.19

Lab note: need log10 of Ki with CYP3A4 (Homo sapiens, UniProt P08684) for entry `CCOc1cncc(NS(=O)(=O)c2ccccc2C(=O)N2CCCC2)c1` , please look it up.
2.65

Request body: readout log10 of Ki, system CYP3A4 (Homo sapiens, UniProt P08684), query `COC[C@H](C)NC(=O)c1ccccc1S(=O)(=O)Nc1cncc(OC)c1` . Return the value.
2.70

Enter reported log10 of Ki observed with CYP3A4 (Homo sapiens, UniProt P08684) for `Cc1ccncc1NS(=O)(=O)c1ccccc1C(=O)N(C)CCC(C)C`
2.45

What reported log10 of Ki corresponds to `CCCCCNC(=O)c1ccccc1S(=O)(=O)N(C)c1cccnc1` on CYP3A4 (Homo sapiens, UniProt P08684)?
2.53

I'm curious: which log10 of Ki was measured for `COc1cncc(NS(=O)(=O)c2ccc(OCCN3CCNCC3)cc2C(=O)NCc2ccc(F)cc2)c1` tested on CYP3A4 (Homo sapiens, UniProt P08684)?
2.31

Param readout= log10 of Ki; system= CYP3A4 (Homo sapiens, UniProt P08684); entry= `COc1cncc(NS(=O)(=O)c2ccccc2C(=O)N2CCCC(C)(C)C2)c1` ; returns value.
2.50

Return log10 of Ki measured with CYP3A4 (Homo sapiens, UniProt P08684) given this compound: `Cc1cccc(CCNC(=O)c2ccccc2S(=O)(=O)Nc2cccnc2)c1`
1.88

Please tell me: log10 of Ki of `COc1cncc(NS(=O)(=O)c2ccccc2C(=O)NCc2cc(F)ccc2F)c1` , system CYP3A4 (Homo sapiens, UniProt P08684)?
2.32

// map `COc1cncc(NS(=O)(=O)c2ccccc2C(=O)NCCc2cccc(Cl)c2)c1` to recorded log10 of Ki (system: CYP3A4 (Homo sapiens, UniProt P08684))
1.66

What is its log10 of Ki for CYP3A4 (Homo sapiens, UniProt P08684)? Entry: `CCCCN(C)C(=O)c1ccccc1S(=O)(=O)Nc1cccnc1`
2.07

Recall the recorded log10 of Ki for `CCOc1ccncc1NS(=O)(=O)c1ccccc1C(=O)NCc1ccc(F)c(C(F)(F)F)c1` with CYP3A4 (Homo sapiens, UniProt P08684) and state it.
0.63

I'm curious: which log10 of Ki was measured for `COc1cncc(NS(=O)(=O)c2ccccc2C(=O)N2CCCCC2)c1` tested on CYP3A4 (Homo sapiens, UniProt P08684)?
2.64
